# experimental_target: UniProt:P58681
# Sequence (P58681 27-1050): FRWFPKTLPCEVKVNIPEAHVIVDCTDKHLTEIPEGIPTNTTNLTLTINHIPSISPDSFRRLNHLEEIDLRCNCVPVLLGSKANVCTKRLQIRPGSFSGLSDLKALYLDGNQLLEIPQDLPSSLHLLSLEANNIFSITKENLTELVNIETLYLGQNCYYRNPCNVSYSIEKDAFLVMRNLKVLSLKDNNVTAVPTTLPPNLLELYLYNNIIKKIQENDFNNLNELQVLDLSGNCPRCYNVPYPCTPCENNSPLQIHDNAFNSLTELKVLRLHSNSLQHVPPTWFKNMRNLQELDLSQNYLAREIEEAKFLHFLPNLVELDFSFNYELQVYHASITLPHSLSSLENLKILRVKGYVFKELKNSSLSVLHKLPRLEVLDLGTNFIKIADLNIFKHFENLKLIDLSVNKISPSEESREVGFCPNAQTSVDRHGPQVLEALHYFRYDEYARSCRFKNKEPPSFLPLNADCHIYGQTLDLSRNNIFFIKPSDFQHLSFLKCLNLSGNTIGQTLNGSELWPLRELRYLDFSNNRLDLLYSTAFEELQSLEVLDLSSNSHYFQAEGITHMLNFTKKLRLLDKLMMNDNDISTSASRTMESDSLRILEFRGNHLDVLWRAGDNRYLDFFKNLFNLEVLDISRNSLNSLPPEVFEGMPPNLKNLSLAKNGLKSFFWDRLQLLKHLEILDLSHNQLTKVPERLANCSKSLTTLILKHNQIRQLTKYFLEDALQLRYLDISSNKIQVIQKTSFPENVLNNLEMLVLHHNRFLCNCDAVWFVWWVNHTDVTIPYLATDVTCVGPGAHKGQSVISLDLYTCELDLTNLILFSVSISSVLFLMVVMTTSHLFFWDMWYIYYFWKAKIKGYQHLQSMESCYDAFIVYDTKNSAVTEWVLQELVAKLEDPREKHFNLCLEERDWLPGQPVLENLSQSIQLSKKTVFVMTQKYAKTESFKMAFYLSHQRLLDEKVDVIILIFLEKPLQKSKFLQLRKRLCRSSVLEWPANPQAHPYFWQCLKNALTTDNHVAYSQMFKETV
# test_name: Reporter Gene Assay (RGA), HEK-Blue mTLR7 reporter cells, SEAP readout
# experimental_setup: overnight incubation, SEAP absorbance 620 nm
measured_endpoint: EC50 (nM)

CCCCOc1nc(N)c2nc(O)n(Cc3ccc(CCN4CCNCC4)cc3OC)c2n1 :: 79.9

A: CCOc1nc(N)c2nc(O)n(Cc3ccc(CN)cc3OC)c2n1
B: CCOc1nc(N)c2nc(O)n(Cc3ccc(CN4CCNCC4)cc3OC)c2n1
C: CCOc1nc(N)c2nc(O)n(Cc3ccc(CNC4CNC4)cc3OC)c2n1
D: CCOc1nc(N)c2nc(O)n(Cc3ccc(CNCC(C)(C)O)cc3OC)c2n1
Incoming: Place the items in sequence of falling EC50. // ordering of labels required in reply
Outgoing: C, A, B, D
(C: 541 nM, A: 146 nM, B: 77.9 nM, D: 47.7 nM)

====

# experimental_target: mTLR7 (Mus musculus)
# test_name: Reporter Gene Assay (RGA), HEK-Blue mTLR7 reporter cells, SEAP readout
# experimental_setup: overnight incubation, SEAP absorbance 620 nm
# Experimental: 1.5×10^4 HEK-Blue™ hTLR7 (Invivogen, San Diego, CA) or HEK-Blue™ mTLR7 (Invivogen, San Diego, CA) reporter cells were treated with a titration series of test compound (4-fold titration from 15 pM, 11 points). […] Cells with test compound were incubated overnight at 37° C.+5% CO2, and the amount of secreted embryonic alkaline phosphatase (SEAP) was determined by measuring absorbance (620 nm) using a Synergy™ H1 microplate reader. […]
measured_endpoint: EC50 (nM)

CCOc1nc(N)c2nc(O)n(Cc3ccc(CN4C[C@@H]5C[C@H]4CN5)cc3OC)c2n1 :: 443

a: CCCCOc1nc(N)c2nc(O)n(Cc3ccc(CN4CCNCC4)cc3OC)c2n1
b: CCOc1nc(N)c2nc(O)n(Cc3ccc(CN4CCC(N)CC4)cc3OC)c2n1
c: CCOc1nc(N)c2nc(O)n(Cc3ccc(CN4CCN(C(=O)CCOCCOCCOCCNC(=O)CC(SC[C@@H](N)C(=O)O)C(=O)O)CC4)cc3OC)c2n1 (stereo partly shown)
Incoming: List these items ordered by EC50, big to small. A ranking is expressed here by listing the labels in the requested order.
Outgoing: c, b, a
(c: 1260 nM, b: 184 nM, a: 2.9 nM)
